Attribution: patent US11214803B2

Can you tell me Yap1 mRNA, % UTC for the items I'm about to list?
- Test system: Yap1 mRNA
- Test details: Yap1 mRNA in SCC25 cells, RNA analysis (Example 25)
- Assay type: cell-based, human
- Setup conditions: 0.04 μM, free uptake, 48 hours, RTS4814, normalized to actin-beta
The reply should be a number in % UTC, with the unit left off.

Asked: Need Yap1 mRNA, % UTC, item 1076453 (GTAATATTGCAATCTG; 3-10-3 cEt gapmer, further chemistry not given here) [compound 1076453]
Given back: 59

Asked: Entry 958499 (ATTAGAGTATGTGGCA; 3-10-3 cEt gapmer, further chemistry not given here) [compound 958499] : reported Yap1 mRNA, % UTC = ?
Given back: 47

Asked: Data request, read-out Yap1 mRNA, % UTC, for CGCCGATAAGGTACAC (cEt gapmer, phosphorothioate backbone, further chemistry not given here) [ION 792169, reference compound]
Given back: 96

Asked: Tell me the measured Yap1 mRNA, % UTC of 1198439 (AGTGTATGTCAGAAGA; sugar, 5-methylcytosine, phosphorothioate modifications, further chemistry not given here) [compound 1198439] , please.
Given back: 35

Asked: Find the recorded Yap1 mRNA, % UTC belonging to 1198831 (CACTTTTACATTAGGA; chemically modified gapmer, further chemistry not given here) [compound 1198831] and report it.
Given back: 63

Asked: Form field: reported Yap1 mRNA, % UTC of 1197270 (TTAAAGTGTATGTCAG; cEt gapmer with 2'-OMe nucleoside, phosphorothioate, further chemistry not given here) [compound 1197270]
Given back: 48

Asked: # input substance: 1198605 (GTAATATTGCAATCTG; modified gapmer, further chemistry not given here) [compound 1198605] ; wanted: its Yap1 mRNA, % UTC
Given back: 48

Asked: What Yap1 mRNA, % UTC value was documented for this substance, 1198872 (TGTATGTCAGAAGAGT; chemically modified gapmer, further chemistry not given here) [compound 1198872] ?
Given back: 54

Asked: Dear colleague, I am looking for the recorded Yap1 mRNA, % UTC of the following substance: 1198440 (AAGTGTATGTCAGAAG; cEt, 2'-MOE, 5-methylcytosine, phosphorothioate modifications, further chemistry not given here) [compound 1198440]
Given back: 39

Asked: Look at this substance and give its reported Yap1 mRNA, % UTC. 1198623 (CTAAGTAAGGTTTCCC; modified gapmer, further chemistry not given here) [compound 1198623]
Given back: 61

Asked: May I ask what Yap1 mRNA, % UTC has been recorded for 1198728 (TATTAGAGTATGTGGC; modified gapmer, further chemistry not given here) [compound 1198728] ?
Given back: 71
